# Target Desc: WEE1 (Homo sapiens, UniProt P30291+Q96SW2)
# Construct: C-terminal ePL-tagged (DiscoverX, Fremont, CA) full-length WEE1 expression construct; expressed in transfected cells; host or cells: LentiX-HEK293T (Invitrogen), lentiviral transduction; co-expressing GSPT1-GN (G576N, lacking the first 158 amino acids)
# Assay Info: WEE1-ePL degradation assay (LentiX-WEE1-ePL-GSPT1-ND cells, InCELL Hunter luminescence, 4 h)
# Format: cell-based
# Condition Info: 293T-LentiX WEE1-ePL cells, lower limit of the fit (0 = luciferase inhibitor, Ymax = DMSO control)
Item-by-item account of 293T-LentiX WEE1-ePL Degradation 4 hr (Ymin)
Give the value as a plain number.

Solved cases below.
>>> df
                                   compound  reported
0  O=C1CCC(N2Cc3cc(O[C@H]4CCN(Cc5ccc6nc([C@@H]7CCC[C@@H](O)C7)ccc6c5)C4)ccc3C2=O)C(=O)N1 (stereo partly shown)        31
1  C[C@@H]1CC(c2ccc3cc(CN4CC[C@H](Oc5ccc6c(c5)CN(C5CCC(=O)NC5=O)C6=O)C4)ccc3n2)CCO1 (stereo partly shown)     29.54
2  N#Cc1ccc2cc(CN3C[C@@H](F)[C@H](Oc4ccc5c(c4)CN(C4CCC(=O)NC4=O)C5=O)C3)ccc2n1 (stereo partly shown)      32.7

Consider O=C1CCC(N2Cc3cc(O[C@H]4CCN(Cc5ccc6nc(N7C[C@@H]8C[C@H]7CO8)ncc6c5)C4)ccc3C2=O)C(=O)N1 (stereo partly shown) . Its measured 293T-LentiX WEE1-ePL Degradation 4 hr (Ymin) is 34.5

Consider NC(=O)c1ccc2cc(CN3CC[C@H](Oc4ccc5c(c4)CN(C4CCC(=O)NC4=O)C5=O)C3)ccc2n1 (stereo partly shown) . Its measured 293T-LentiX WEE1-ePL Degradation 4 hr (Ymin) is 26.545

* * *

# Target Desc: WEE1 (Homo sapiens, UniProt P30291+Q96SW2)
# Construct: C-terminal ePL-tagged (DiscoverX, Fremont, CA) full-length WEE1 expression construct; expressed in transfected cells; host or cells: LentiX-HEK293T (Invitrogen), lentiviral transduction; co-expressing GSPT1-GN (G576N, lacking the first 158 amino acids)
# Assay Info: WEE1-ePL degradation assay (LentiX-WEE1-ePL-GSPT1-ND cells, InCELL Hunter luminescence, 4 h)
# Type: cell-based
# Condition Info: 293T-LentiX WEE1-ePL cells, read-out: 293T-LentiX WEE1-ePL Degradation 4 hr (EC50)
# Description: To generate LentiX-WEE1-ePL-GSPT1-ND cells for the WEE1 degradation assay, LentiX-HEK293T (Invitrogen) were transduced by lentivirus with a C-terminal ePL-tagged (DiscoverX, Fremont, CA) full-length WEE1 expression construct. […] Cells were selected and maintained in complete DMEM media (DMEM, 10% Heat Inactivated FBS, 400 μg/mL Geneticin, and 1 μg/mL puromycin at 37 C and 5% CO2). Cells were passaged every 3-4 days by reseeding 1×10^6 cells in a T150 flask. […]
Value Kind: DC50
A complete answer gives the number followed by the unit.

Solved cases below.
>>> df
                                   molecule                               target_desc  reported
0  CC(=O)N1CCN(c2ncc3cc(CN4CC[C@H](Oc5ccc6c(c5)CN([C@H]5CCC(=O)NC5=O)C6=O)C4)ccc3n2)CC1  WEE1 (Homo sapiens, UniProt P30291+Q96SW2)   9.27 nM
1  CNc1ccc2cc(CN3CC[C@H](Oc4ccc5c(c4)CN(C4CCC(=O)NC4=O)C5=O)C3)ccc2n1 (some centres unmarked)  WEE1 (Homo sapiens, UniProt P30291+Q96SW2)   7.21 nM
2  O=C1CCC(N2Cc3cc(O[C@H]4CCN(Cc5ccc6nc(N7CCCC(F)(F)C7)ccc6c5)C4)ccc3C2=O)C(=O)N1 (some centres unmarked)  WEE1 (Homo sapiens, UniProt P30291+Q96SW2)   18.5 nM
3  O=C1CCC(N2Cc3cc(O[C@H]4CCN(Cc5ccc6nc(N7C[C@@H]8C[C@H]7CO8)ccc6c5)C4)ccc3C2=O)C(=O)N1 (some centres unmarked)  WEE1 (Homo sapiens, UniProt P30291+Q96SW2)   2.98 nM
4  O=C1CCC(N2Cc3cc(O[C@H]4CCN(Cc5cncc(C(F)(F)F)c5)C4)ccc3C2=O)C(=O)N1 (some centres unmarked)  WEE1 (Homo sapiens, UniProt P30291+Q96SW2)   36.9 nM
5  O=C1CCC(N2Cc3cc(O[C@H]4CCN(Cc5cc6cccc(F)c6cn5)C4)ccc3C2=O)C(=O)N1 (some centres unmarked)  WEE1 (Homo sapiens, UniProt P30291+Q96SW2)   5.32 nM

Consider O=C1CCC(N2Cc3cc(O[C@H]4CCN(Cc5ccc6ncccc6n5)C4)ccc3C2=O)C(=O)N1 (some centres unmarked) . Its measured DC50 is 27.9 nM

Consider O=C1CCC(N2Cc3cc(O[C@H]4CCN(Cc5ccc6nc(N7CCC(O)CC7)ccc6c5)C4)ccc3C2=O)C(=O)N1 (some centres unmarked) . Its measured DC50 is 2.86 nM
